target_entity: T1, HLA-DRB1*0701 (human)
T1 construct: human MHC class II allotype
test_details: competitive MHC class II binding assay; competitor: control peptide Influenza haemagglutinin 307-319;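 note: each peptide was tested for its capacity to displace a known reference binder from human MHC class II allotypes, and its IC50 is expressed relative to that of the reference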
property_name: ratio of IC50 to that of the control peptide (ratio)
Give just the numeric value; ratio need not be written.

Give recorded ratio of IC50 to that of the control peptide. HDDVVSMEYDLAYKL [HDM39A]
0.71

Give recorded ratio of IC50 to that of the control peptide. VDFKGELAMRNIE [HDM51]
20.9

Give recorded ratio of IC50 to that of the control peptide. TAIFQDTVRAEMTK [HDM48]
15.7

Give recorded ratio of IC50 to that of the control peptide. IDLRQMRTVTPIR [HDM01]
16
